target.entity: α3β2γ2 GABAA receptor (Homo sapiens, UniProt P18507+P34903+P47870)
Construct: expressed in transfected cells
Sequence (P34903 29-492): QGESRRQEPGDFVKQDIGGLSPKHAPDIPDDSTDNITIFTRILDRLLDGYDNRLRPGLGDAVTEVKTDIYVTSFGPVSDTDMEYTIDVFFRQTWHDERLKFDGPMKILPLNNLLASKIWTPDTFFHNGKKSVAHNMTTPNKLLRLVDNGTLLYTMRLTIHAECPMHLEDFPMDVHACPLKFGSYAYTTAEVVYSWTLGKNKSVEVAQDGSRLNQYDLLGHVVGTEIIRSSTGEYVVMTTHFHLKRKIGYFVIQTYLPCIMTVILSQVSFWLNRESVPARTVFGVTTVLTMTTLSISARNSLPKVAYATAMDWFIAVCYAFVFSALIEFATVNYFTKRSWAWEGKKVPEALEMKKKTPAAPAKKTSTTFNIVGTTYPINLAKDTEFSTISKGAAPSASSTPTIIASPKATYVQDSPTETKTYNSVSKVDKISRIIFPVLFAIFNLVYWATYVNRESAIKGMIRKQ
Sequence (P47870 25-512 limits assumed): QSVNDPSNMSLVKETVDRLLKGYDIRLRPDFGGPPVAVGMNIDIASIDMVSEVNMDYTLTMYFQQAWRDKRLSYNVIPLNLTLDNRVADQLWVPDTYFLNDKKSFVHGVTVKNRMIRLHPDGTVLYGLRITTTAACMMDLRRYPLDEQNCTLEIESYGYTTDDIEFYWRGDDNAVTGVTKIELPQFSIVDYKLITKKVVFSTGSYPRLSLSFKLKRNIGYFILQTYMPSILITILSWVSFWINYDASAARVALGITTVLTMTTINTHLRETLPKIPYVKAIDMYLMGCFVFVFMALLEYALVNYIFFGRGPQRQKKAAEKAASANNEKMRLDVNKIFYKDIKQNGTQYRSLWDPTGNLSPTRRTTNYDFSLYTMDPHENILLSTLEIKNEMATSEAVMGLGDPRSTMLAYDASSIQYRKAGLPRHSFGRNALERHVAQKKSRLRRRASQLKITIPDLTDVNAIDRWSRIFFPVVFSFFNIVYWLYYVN
Sequence (P18507 40-475): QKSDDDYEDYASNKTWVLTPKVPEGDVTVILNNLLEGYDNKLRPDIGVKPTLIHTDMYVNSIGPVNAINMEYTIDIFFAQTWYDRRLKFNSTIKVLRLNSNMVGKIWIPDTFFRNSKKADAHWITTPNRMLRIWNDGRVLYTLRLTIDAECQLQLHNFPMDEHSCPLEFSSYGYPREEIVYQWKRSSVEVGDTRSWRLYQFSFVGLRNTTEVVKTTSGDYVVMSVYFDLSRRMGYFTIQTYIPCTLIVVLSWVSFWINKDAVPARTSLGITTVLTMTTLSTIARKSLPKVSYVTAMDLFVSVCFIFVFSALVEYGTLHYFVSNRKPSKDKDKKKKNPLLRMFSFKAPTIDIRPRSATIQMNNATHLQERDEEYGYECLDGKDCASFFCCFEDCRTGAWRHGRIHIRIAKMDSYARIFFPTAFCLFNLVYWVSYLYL
protocol.summary: FLIPR modulation of GABAA receptor subtype in expressing cells
Format: cell-based
condition: cells exposed to GABA plus compound, — = value not measurable

{"smiles.structure": "C[C@@]1(O)CC[C@@]2(C)[C@@H](CC[C@@H]3[C@@H]2CC[C@]2(C)[C@@H](C(=O)Cn4cc(C#N)cn4)CC[C@@H]32)C1", "EC50 (µM)": 1.82}

* * *

target.entity: α5β3γ2 GABAA receptor (Homo sapiens, UniProt P18507+P28472+P31644)
Construct: expressed in transfected cells
Sequence (P31644 32-462): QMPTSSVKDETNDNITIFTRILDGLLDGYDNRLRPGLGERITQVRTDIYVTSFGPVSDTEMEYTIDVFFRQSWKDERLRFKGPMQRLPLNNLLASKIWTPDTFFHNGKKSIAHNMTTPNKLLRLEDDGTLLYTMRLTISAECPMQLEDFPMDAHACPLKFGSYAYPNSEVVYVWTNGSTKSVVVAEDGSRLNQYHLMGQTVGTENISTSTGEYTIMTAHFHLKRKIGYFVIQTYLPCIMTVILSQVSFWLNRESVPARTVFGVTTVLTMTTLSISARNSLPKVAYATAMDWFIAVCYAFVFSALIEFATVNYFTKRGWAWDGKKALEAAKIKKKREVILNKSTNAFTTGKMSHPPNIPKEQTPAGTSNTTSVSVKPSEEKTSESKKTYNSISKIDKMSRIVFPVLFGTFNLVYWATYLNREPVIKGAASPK
Sequence (P28472 26-473): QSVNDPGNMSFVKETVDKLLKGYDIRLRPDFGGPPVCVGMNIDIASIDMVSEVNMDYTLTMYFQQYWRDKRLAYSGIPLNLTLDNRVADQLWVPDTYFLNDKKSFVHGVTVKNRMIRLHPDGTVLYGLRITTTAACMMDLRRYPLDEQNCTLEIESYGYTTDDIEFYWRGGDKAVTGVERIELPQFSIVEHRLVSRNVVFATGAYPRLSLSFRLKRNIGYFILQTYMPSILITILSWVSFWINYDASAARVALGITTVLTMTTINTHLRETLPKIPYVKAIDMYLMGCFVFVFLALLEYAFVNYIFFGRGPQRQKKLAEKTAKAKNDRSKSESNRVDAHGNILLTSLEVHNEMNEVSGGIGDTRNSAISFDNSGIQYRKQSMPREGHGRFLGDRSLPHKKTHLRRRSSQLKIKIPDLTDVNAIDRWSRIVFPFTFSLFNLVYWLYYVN
Sequence (P18507 40-475): as the sequence (P18507 40-475) above
protocol.summary: FLIPR modulation of GABAA receptor subtype in expressing cells
Assay type: cell-based
condition: cells exposed to GABA plus compound, — = value not measurable

{"compound": "C[C@]1(O)CC[C@@]2(C)[C@@H](CC[C@@H]3[C@@H]2CC[C@]2(C)[C@@H](C(=O)Cn4cc(C#N)cn4)CC[C@@H]32)C1 [SPNC-019, reference compound]", "readout.units": "nM", "EC50": 1810}
{"compound": "C[C@@]1(O)CC[C@@]2(C)[C@@H](CC[C@@H]3[C@@H]2CC[C@]2(C)[C@@H](C(=O)Cn4cc(C#N)cn4)CC[C@@H]32)C1 [CV-10155]", "readout.units": "nM", "EC50": 1300}
